System: RARa:RXR (NR concentration 270 nM, RXRa partner concentration 90 nM)
Assay: PBM binding z-score (relative to random genomic background probes); higher = stronger binding; sequences stand for … in GC…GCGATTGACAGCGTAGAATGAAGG
outcomeMeasure: PBM binding z-score
The answer should be written as a number, with no unit following it.

See these solved cases before continuing.
sequenceRecord	targetUnderTest	outcomeMeasure	valueReported
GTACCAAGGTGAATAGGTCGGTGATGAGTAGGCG	RARa:RXR (NR concentration 270 nM, RXRa partner concentration 90 nM)	PBM binding z-score	1.02
ATCTCTAGGTAAGACTCAGTTCAATGAAGAACGC	RARa:RXR (NR concentration 270 nM, RXRa partner concentration 90 nM)	PBM binding z-score	1.34
TCTTGGAGATCAAAGGTTAAGAAAGCCGAAGCCT	RARa:RXR (NR concentration 270 nM, RXRa partner concentration 90 nM)	PBM binding z-score	3.89
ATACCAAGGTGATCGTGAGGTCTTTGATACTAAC	RARa:RXR (NR concentration 270 nM, RXRa partner concentration 90 nM)	PBM binding z-score	0.833
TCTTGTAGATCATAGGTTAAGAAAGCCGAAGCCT	RARa:RXR (NR concentration 270 nM, RXRa partner concentration 90 nM)	PBM binding z-score	1.37

Kindly state the measured PBM binding z-score obtained for "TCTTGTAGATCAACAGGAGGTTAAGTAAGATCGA" with RARa:RXR (NR concentration 270 nM, RXRa partner concentration 90 nM). 1.46

"CGTCCAAGGTCAAAGGTCAGTGCAGAGATGACGG" ? 9.23

"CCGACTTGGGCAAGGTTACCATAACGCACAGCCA" , same question. 0.774

// same read-out, input: "TCCTGTAGATCAATAGAGGTTAAGAAAGTGCGCT" 1.59

What do we get for "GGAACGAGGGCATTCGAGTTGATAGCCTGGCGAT" ? 1.58

What would you report for "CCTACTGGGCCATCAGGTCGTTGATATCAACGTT" ? 0.272
